- Tested on: HBV DNA
- ASSAY_TEXT: HBV DNA assay (real-time qPCR) in HepG2.2.15 cells
- Format: cell-based
- COND: Hepatitis B virus, 144 h, extracellular HBV DNA, 6 days, read-out: IC50 (Anti HBV DNA production activity)
PROPERTY: IC50 (µM)
I only need the number, in µM, no unit after it.

**Q:** Dear colleague, I am looking for the recorded IC50 of the following compound: CS(=O)(=O)c1ccc(N2CCc3nc(-c4ccccn4)nc(O)c3C2)cc1
**A:** 0.16
